Value source: ChEMBL document CHEMBL1126755

Test: Neurotoxicity was determined, 0.25 hr after intraperitoneal injection in mice.
Format: toxicity, organism-based
Settings: mouse, in vivo, ip
Exercise: state measured TD50 at 0.25 h for each of the compounds provided.
Answers are plain numbers, in mg/kg.

// below: answered compounds
- Smiles Code: "CCCC/C(=N\\NC(N)=O)c1ccccc1"
  Measurement Kind: "TD50 at 0.25 h"
  Value Unit: "mg/kg"
  Observed: 106
- Smiles Code: "CC(=NNC(N)=O)c1ccccc1"
  Measurement Kind: "TD50 at 0.25 h"
  Value Unit: "mg/kg"
  Observed: 82.3
- Smiles Code: "NC(=O)N/N=C/c1ccc(Cl)cc1"
  Measurement Kind: "TD50 at 0.25 h"
  Value Unit: "mg/kg"
  Observed: 252
- Smiles Code: "NC(=O)NN=C(c1ccccc1)c1ccccc1"
  Measurement Kind: "TD50 at 0.25 h"
  Value Unit: "mg/kg"
  Observed: 89.7

I would be grateful if you could provide TD50 at 0.25 h for each of the following entries.
1. NC(=O)N/N=C/CCc1ccccc1
2. NC(=O)N/N=C/C=C/c1ccccc1

Response:
72.3
98.2

Request: Looking for the measured TD50 at 0.25 h of "NC(=O)N/N=C/Cc1ccccc1" , can you help?
Response: 120

====

Test: Neurotoxicity was determined, 1 hr after oral dosing in rat.
Assay type: toxicity, organism-based
Conditions: in vivo
Exercise: state measured TD50 at 1 h for each of the compounds provided.

// below: answered compounds
- Smiles Code: "NC(=O)N/N=C/c1c(Cl)cccc1Cl"
  TD50 at 1 h: "129 mg/kg"
- Smiles Code: "NC(=O)N/N=C/c1ccc(Cl)c(Cl)c1"
  TD50 at 1 h: "> 500 mg/kg"
- Smiles Code: "CC/C(=N\\NC(N)=O)c1ccccc1"
  TD50 at 1 h: "404 mg/kg"

Request: Looking for the measured TD50 at 1 h of "NC(=S)N/N=C/c1ccccc1" , can you help?
Response: > 200 mg/kg

====

Assay: Toxic dose determined as neurotoxicity, 0.25 hr after intraperitoneal injection in mice.
Type: toxicity, organism-based
Conditions: mouse, in vivo, ip
Measurement Kind: TD50 at 0.25 h

Request: Looking for the measured TD50 at 0.25 h of "NC(=O)N/N=C/c1cccc(Cl)c1" , can you help?
Response: > 500 mg/kg

====

System: Mus musculus
Test: Ability to prevent seizures induced by subcutaneous injection of picrotoxin, after 0.25 hr in mice
Type: functional
Settings: sc
Exercise: state measured ED50 for each of the compounds provided.
Give bare numbers, in mg/kg.

// below: answered compounds
- Smiles Code: "CCCCC/C(=N\\NC(N)=O)c1ccccc1"
  Tgt: "Mus musculus"
  Value Unit: "mg/kg"
  Observed: 230
- Smiles Code: "CC(=NNC(N)=O)c1ccccc1"
  Tgt: "Mus musculus"
  Value Unit: "mg/kg"
  Observed: 60.8
- Smiles Code: "NC(=O)N/N=C/c1ccc(Cl)cc1"
  Tgt: "Mus musculus"
  Value Unit: "mg/kg"
  Observed: 146
- Smiles Code: "CC/C(=N\\NC(N)=O)c1ccccc1"
  Tgt: "Mus musculus"
  Value Unit: "mg/kg"
  Observed: 128

Request: Looking for the measured ED50 of "NC(=O)N/N=C\c1ccccc1" , can you help?
Response: 104

====

Exercise: state measured Ratio for each of the compounds provided.
Experiment: Protective index is the ratio of TD50 in neurotoxicity screen test and ED50 in MES screen test
Numbers only.

// below: answered compounds
- Smiles Code: "C/C(=N\\N=C(/N)S)c1ccccc1"
  Ratio: 4.33
- Smiles Code: "NC(=O)NN=C(c1ccccc1)c1ccccc1"
  Ratio: 10.3
- Smiles Code: "CC/C(=N\\NC(N)=O)c1ccccc1"
  Ratio: 12.3
- Smiles Code: "CC(=NNC(N)=O)c1ccccc1"
  Ratio: 13.2

Request: Looking for the measured Ratio of "CC(C)/C(=N\NC(N)=O)c1ccccc1" , can you help?
Response: 5.66

====

Assay: Neurotoxicity was determined, 1 hr after oral dosing in rat.
Type: toxicity, organism-based
Details: in vivo
Exercise: state measured TD50 at 1 h for each of the molecules provided.
One number for each entry, in mg/kg.

// below: answered molecules
- Smiles Code: "NC(=O)NN=C(c1ccccc1)c1ccccc1"
  Observed: 235
- Smiles Code: "CC(C)/C(=N\\NC(N)=O)c1ccccc1"
  Observed: 245

I would be grateful if you could provide TD50 at 1 h for each of the following entries.
1. C/C(=N\N=C(/N)S)c1ccccc1
2. CC(=NNC(N)=O)c1ccccc1
3. NC(=O)N/N=C/CCc1ccccc1

Response:
1: 73; 2: 268; 3: 334

====

Assay: Protective index is the ratio of TD50 in neurotoxicity screen test and ED50 in MES screen test
Measurement Kind: Ratio
Numbers only.

// below: answered compounds
- Compound: "C/C(=N/N=C(\\N)S)c1ccc(Cl)cc1 [P-CHLOROPHENYL(METHYL)THIOSEMICARBAZONE]"
  Ratio: 7.67
- Compound: "NC(=O)N/N=C\\c1ccccc1 [PHENYLSEMICARBAZONE]"
  Ratio: 11.3
- Compound: "NC(=O)N/N=C/CCc1ccccc1 [PHENYLETHYLSEMICARBAZONE]"
  Ratio: 9.16

Now consider the entry below.
Request: Looking for the measured Ratio of "NC(=O)N/N=C/c1c(Cl)cccc1Cl" , can you help?
Response: 2.18

====

Experiment: Toxic dose determined neurotoxicity, 1 hr after oral dosing in rat
Type: toxicity, organism-based
Details: in vivo
Measurement Kind: TD50 at 1 h (mg/kg)
Give bare numbers, in mg/kg.

Request: Looking for the measured TD50 at 1 h of C/C(=N/N=C(\N)S)c1ccc(Cl)cc1 [P-CHLOROPHENYL(METHYL)THIOSEMICARBAZONE] , can you help?
Response: 119

====

Test: Protective index is the ratio of TD50 in neurotoxicity screen test and ED50 in MES screen test
Measurement Kind: Ratio

// below: answered compounds
- Smiles Code: "NC(=O)N/N=C/Cc1ccccc1"
  Ratio: "> 11.7"
- Smiles Code: "CCCCC/C(=N\\NC(N)=O)c1ccccc1"
  Ratio: "> 15.3"
- Smiles Code: "NC(=S)N/N=C/c1ccccc1"
  Ratio: "> 15.6"
- Smiles Code: "NC(=O)N/N=C/c1cccc(Cl)c1"
  Ratio: "> 20.5"

I would be grateful if you could provide Ratio for each of the following entries.
1. NC(=O)N/N=C/c1ccc(Cl)cc1Cl
2. NC(=O)N/N=C/C=C/c1ccccc1

Response:
1: > 11.6; 2: > 43.5

====

Exercise: state measured Ratio for each of the molecules provided.
Assay: Protective index is the ratio of TD50 in neurotoxicity screen test and ED50 in MES screen test

- Smiles Code: "NC(=O)N/N=C/c1ccccc1Cl"
  Measurement Kind: "Ratio"
  Observed: "> 12.9"
- Smiles Code: "CCCC/C(=N\\NC(N)=O)c1ccccc1"
  Measurement Kind: "Ratio"
  Observed: "> 8.41"
- Smiles Code: "NC(=O)N/N=C/c1ccc(Cl)c(Cl)c1"
  Measurement Kind: "Ratio"
  Observed: "> 24.8"

Request: Looking for the measured Ratio of "NC(=O)N/N=C/c1ccc(Cl)cc1" , can you help?
Response: > 26.9
